- Tested on: beige adipocytes
- assay-text: Lipolysis validation assays of primary hits at three concentrations
- Assay type: cell-based, human
- Parameters: unit of the concentration uncertain
- settings: Conc. 2.2 (unit uncertain)
- Experimental: ADSCs were seeded at 5000 cell/cm^2 in 12-well plates, grown for 5 days and then induced to differentiate into GC for 20 days. […] Lipolysis assays were performed after 24 hours of drug treatment by measuring free glycerol released in the 384-well format, using the procedure described above. Absorbance for each compound was normalized to untreated control samples for each plate and calculated as a percent of the control. […]

smiles-data	% of Control (4)
Cc1ccccc1N1CCN(S(=O)(=O)C[C@]23CC[C@H](C[C@@H]2NC(=O)[C@@H](N)CCS(C)(=O)=O)C3(C)C)CC1	91.72 % of Control
COc1ccc(-c2cc3c(C)nc(N)nc3n([C@H]3CC[C@H](OCCO)CC3)c2=O)cn1	105.98 % of Control
CO[C@H]1CC[C@@H](O[C@H]2C[C@H]([C@]3(C)CC[C@]4(C[C@H](O)[C@@H](C)[C@@H]([C@@H](C)/C=C(\C)C(=O)[C@H](C)C[C@H](C)C(=O)O)O4)O3)O[C@]3(O[C@@H]([C@H]4O[C@@](O)(CO)[C@H](C)C[C@@H]4C)C[C@@H]3C)[C@@H]2C)O[C@@H]1C	124.48 % of Control
CC1(C)C(=O)N(CCN2CCC(C(=O)c3ccc(F)cc3)CC2)c2ccccc21	143.79 % of Control
Cc1ccc([N+](=O)[O-])cc1S(=O)(=O)N(C)/N=C/c1cnc2ccc(Br)cn12	136.9 % of Control
